assay: Test 4: concentration of the test compounds in plasma; type: in vivo; settings: mouse, po, 25 mg/kg, 25 mg/kg po, 6 hr, animal 3, read-out: Concentration in plasma, animal 3
QUANTITY MEASURED: concentration at 6 hr (ng/mL)
Answers are plain numbers, in ng/mL.

Ask | Name the recorded concentration at 6 hr for CN1CCN(C(=O)c2c(C(F)(F)F)oc3c2C(=O)c2ccccc2C3=O)CC1 .
Reply | 334

###

test: Test 4: concentration of the test compounds in plasma; type: in vivo; conditions: mouse, po, 25 mg/kg, 25 mg/kg po, 6 hr, animal 2, read-out: Concentration in plasma, animal 2
QUANTITY MEASURED: concentration at 6 hr (ng/mL)
Answers are plain numbers, in ng/mL.

Ask | Name the recorded concentration at 6 hr for CN1CCN(C(=O)c2c(C(F)(F)F)oc3c2C(=O)c2ccccc2C3=O)CC1 .
Reply | 2800
